measurement.target: F508delCFTR (Homo sapiens, UniProt P13569, DEL508-508)
Construct: expressed in transfected cells; host or cells: CFBE41o- (human lung derived epithelial cell line), doxycycline-inducible expression
Sequence (P13569 with tags, fused parts or gaps DEL508-508): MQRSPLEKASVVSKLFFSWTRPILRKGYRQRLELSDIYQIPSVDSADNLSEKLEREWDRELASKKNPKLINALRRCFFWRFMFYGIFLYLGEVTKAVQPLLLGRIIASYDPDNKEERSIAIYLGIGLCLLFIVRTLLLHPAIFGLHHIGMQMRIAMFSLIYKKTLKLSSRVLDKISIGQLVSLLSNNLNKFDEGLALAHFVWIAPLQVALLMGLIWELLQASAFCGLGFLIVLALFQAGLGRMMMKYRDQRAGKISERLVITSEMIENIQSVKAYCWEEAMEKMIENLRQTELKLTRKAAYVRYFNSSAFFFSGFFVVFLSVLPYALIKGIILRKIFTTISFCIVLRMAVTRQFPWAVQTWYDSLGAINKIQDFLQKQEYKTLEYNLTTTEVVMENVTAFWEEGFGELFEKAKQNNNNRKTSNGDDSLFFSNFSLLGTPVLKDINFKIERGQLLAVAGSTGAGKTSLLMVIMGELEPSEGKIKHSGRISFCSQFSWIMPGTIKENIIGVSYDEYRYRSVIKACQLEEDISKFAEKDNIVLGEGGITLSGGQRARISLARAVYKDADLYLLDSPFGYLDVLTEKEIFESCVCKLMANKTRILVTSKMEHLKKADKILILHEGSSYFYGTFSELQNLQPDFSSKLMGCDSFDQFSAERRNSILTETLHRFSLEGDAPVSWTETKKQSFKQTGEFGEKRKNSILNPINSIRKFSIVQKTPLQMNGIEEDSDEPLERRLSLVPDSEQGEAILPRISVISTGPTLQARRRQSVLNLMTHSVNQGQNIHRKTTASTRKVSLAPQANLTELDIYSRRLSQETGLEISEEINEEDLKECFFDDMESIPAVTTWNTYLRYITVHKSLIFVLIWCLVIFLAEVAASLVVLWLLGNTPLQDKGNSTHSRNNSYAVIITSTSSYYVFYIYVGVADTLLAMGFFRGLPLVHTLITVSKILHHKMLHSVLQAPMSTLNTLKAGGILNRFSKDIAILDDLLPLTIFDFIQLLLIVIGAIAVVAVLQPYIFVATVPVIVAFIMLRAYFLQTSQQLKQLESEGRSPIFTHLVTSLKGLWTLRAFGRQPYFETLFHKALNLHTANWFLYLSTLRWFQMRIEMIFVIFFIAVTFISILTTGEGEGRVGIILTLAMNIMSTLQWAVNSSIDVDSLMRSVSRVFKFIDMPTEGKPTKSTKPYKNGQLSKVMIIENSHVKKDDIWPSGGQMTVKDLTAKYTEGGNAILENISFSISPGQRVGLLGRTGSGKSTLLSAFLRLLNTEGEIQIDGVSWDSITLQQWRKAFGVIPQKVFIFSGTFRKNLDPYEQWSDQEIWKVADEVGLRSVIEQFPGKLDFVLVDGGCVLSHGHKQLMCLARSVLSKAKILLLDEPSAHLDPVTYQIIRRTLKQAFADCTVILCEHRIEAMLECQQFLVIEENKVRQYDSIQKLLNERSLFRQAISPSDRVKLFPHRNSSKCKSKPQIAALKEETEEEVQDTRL
experiment.summary: Cell Surface Expression-Horse Radish Peroxidase (CSE-HRP) assay
Assay type: cell-based
measurement.conditions: CFBE41o-F508delCFTR-HRP cells; test compound without co-corrector; 18-24 hours at 33° C.; read-out: EC50 (without co-corrector)

- smi: "COc1ncc(N2CC(F)(F)C2)cc1CO[C@H]1[C@H](C(C)(C)C)[C@@H](C(=O)O)N(C(=O)OC(C)C)[C@H]1c1ccccc1"
  EC50: "1 to 10 µM"
- smi: "COc1ncc(C(F)(F)F)cc1CO[C@H]1[C@H](C(C)(C)C)[C@@H](C(=O)O)N(C(=O)OC(C)C)[C@H]1c1ccccc1C"
  EC50: "1 to 10 µM"
- smi: "COc1ncc(C(C)(C)C)cc1CO[C@H]1[C@H](C(C)(C)C)[C@@H](C(=O)O)N(C(=O)[C@@H]2CCC[C@@H](OC)C2)[C@H]1c1ccccc1"
  EC50: "< 1 µM"
- smi: "COc1nc2ccccc2cc1CO[C@H]1[C@H](C(C)(C)C)[C@@H](C(=O)O)N(C(=O)OC(C)C)[C@H]1c1ccccc1"
  EC50: "1 to 10 µM"
- smi: "COc1ccc(C(C)(C)C)cc1CO[C@H]1[C@H](C(C)(C)C)[C@@H](C(=O)O)N(C(=O)[C@@H]2CCCO2)[C@H]1c1ccccc1Br"
  EC50: "1 to 10 µM"
- smi: "COc1ncc(C(C)(C)C)cc1CO[C@H]1[C@H](C(C)(C)C)[C@@H](C(=O)O)N(C(=O)C2CCCCC2)[C@H]1c1ccccc1"
  EC50: "< 1 µM"
